Tested on: Chordin-like protein 2 (CHRDL2)
Test: compounds binding chordin-like 2 – biochemical, small-molecule microarray, 635 nm fluorescence, primary screen (AID 1126);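 also: printed compound slides probed with Chrdl2 protein at 4 µg/mL for 1 h at 4 C; score merges 667 nm emission intensity with signal to noise over three replicate slides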
Conditions: fluorescence 635 nm, higher = more signal
Criterion: composite z-score meeting or surpassing 0.08. Met: True. Not met: False.

Example cases with answers are listed next.
>>> category_label("Cc1cc(C)c(C(O)C2C=CC3C(=O)N(c4ccccc4)C(=O)C3N2Nc2ccccc2)c(C)c1 (stereo not given)")
"False"
>>> category_label("CC(C)N1CC=CC23O[C@@H]4C=CCOC(=O)[C@@H]4[C@H]2C(=O)N(CCCCCCO)[C@@H]3C1=O (stereo not given in full)")
"False"
>>> category_label("[N-]=[N+]=Nc1ccccc1[C@H]1OC(c2ccc(OCCCO)cc2)=N[C@@]1(Cc1ccccc1)C(=O)NCc1ccccc1")
"True"
>>> category_label("COCCCNC(=O)[C@@]1(Cc2ccccc2)COC(c2ccc(OCCCO)cc2)=N1")
"False"

Switching to the query record.
composite z-score >= 0.08 for CCCC[C@@H](O)C1=C(COc2ccccc2)Cn2c(=O)n(-c3ccccc3)c(=O)n2[C@H]1CO ?
True

###

Biological target: Alpha-bungarotoxin (Bungarus multicinctus) (UniProt P60615)
Sequence (P60615 whole entry, looked up): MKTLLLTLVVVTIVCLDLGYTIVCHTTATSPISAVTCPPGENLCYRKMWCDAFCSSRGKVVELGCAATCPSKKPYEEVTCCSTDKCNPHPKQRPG
Experiment: compounds binding labelled alpha-BTX control protein – biochemical, small-molecule microarray, Alexa647 label, 635/667 nm fluorescence, artefact control for SMM control protein annotation, profiling panel (AID 1117)
Conditions: alpha-BTX-A647 binding fluorescence, higher = more signal
Measurement name: composite z-score
Write the number on its own, no unit after it.

For orientation, consider the following solved cases.
>>> endpoint_value("C=CCC(OC(C)=O)[C@@H]1[C@@H](N(Cc2cccc3ccccc23)C(=O)Cc2ccc(F)cc2)c2cc(OCCCO)ccc2N1C(=O)Cc1ccc(OC)cc1 (some centres undefined)")
-0.0482
>>> endpoint_value("CC(C)C[C@@H]1NC(=O)[C@@H]2C[C@H](C(=O)NCc3ccc(F)cc3)[C@H](c3ccc(O)cc3)N2C1=O")
0.896
>>> endpoint_value("CN1C(=O)C2C=CC(C(O)C3CCCCC3)N(N(c3ccccc3)c3ccccc3)C2C1=O (centres undefined)")
-0.232

Now take the following molecule into account.
Param item = COC(=O)[C@@]1(Cc2ccc(F)cc2)[C@H]2c3cc(C(=O)N(C)C)n(CCSCCO)c3C[C@H]2CN1C(=O)c1ccccc1 ; retrieve measured composite z-score.
0.224

###

Test: probe aLefty1 binding on compound microarray – biochemical, small-molecule microarray, 635/667 nm fluorescence, primary screen (AID 1153);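 also: score merges spot fluorescence with signal-to-noise ratio from the scanned slide images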
Conditions: higher = more signal
# composite z-score listing for each entry below
Write the number on its own, no unit after it.

For orientation, consider the following solved cases.
>>> endpoint_value("COC(=O)[C@@]1(Cc2ccccc2)[C@H]2c3cc(C(=O)N(C)C)n(Cc4ccccn4)c3C[C@H]2CN1C(=O)c1ccccc1")
0.378
>>> endpoint_value("COC(=O)c1ccc(OC)c(/C=C\\CC(CCc2ccccc2)OC(C)=O)c1 (centres undefined)")
-0.456
>>> endpoint_value("CCOC(=O)C1=CC[C@@H](c2cccc(Br)c2)N(S(=O)(=O)c2ccc(C)cc2)[C@H]1c1ccc([N+](=O)[O-])cc1")
0.0509

Param item = COc1ccc([Si](C)(C)[C@@H]2[C@@H](CCO)O[C@]3(C(=O)N(Cc4ccccc4)c4ccc(N5CCCCC5=O)cc43)[C@H]2C)cc1 ; retrieve measured composite z-score.
0.0984
